- Tested on: nitrite levels in the culture media
- METHOD SUMMARY: Nitrite level (Griess Reagent System) in LPS-challenged RAW 264.7 cells
- Format: cell-based, mouse
- Design: key: NS=not significant; a “+” sign=anti-inflammatory or increased cell numbers; a “−” sign=cell toxicity or pro-inflammatory
- CONDITION SUMMARY: 1 μM; LPS 30 or 60 ng/mL, 24 h
OUTCOME MEASURE: Nitrite

Worked examples follow.
COMPOUND: Nc1cccc2c1CN(CC13CC4CC(CC(C4)C1)C3)C2=O
Nitrite: NS

COMPOUND: CC1(C)[C@@H]2CC[C@]1(C)[C@H](N1Cc3c(cccc3[N+](=O)[O-])C1=O)C2
Nitrite: +

COMPOUND: O=C1c2ccccc2CN1c1nc2ccc(C(F)(F)F)cc2s1
Nitrite: NS

COMPOUND: O=C1c2ccccc2CN1CC12CC3CC(CC(C3)C1)C2
Nitrite: NS

Look up Nitrite of `FC(F)(F)c1ccc(/N=C2/c3ccccc3CN2c2ccc(C(F)(F)F)cn2)nc1` and report it. NS

Note Nitrite for the compound shown: `C[C@@H]1[C@@H](N2Cc3c(cccc3[N+](=O)[O-])C2=O)C[C@H]2C[C@@H]1C2(C)C` +

Query Nitrite for O=C1c2ccccc2CN1C1C2CC3CC(C2)CC1C3 (stereo not shown) NS

Give a short answer stating reported Nitrite for `O=C1c2cccc([N+](=O)[O-])c2CN1C12CC3CC(CC(C3)C1)C2` . NS

Provide measured Nitrite value, entry: `O=C1c2ccccc2CN1C12CC3CC(CC1C3)C2` NS

Determine from records and report Nitrite for `C[C@@H]1[C@@H](N2C=C3C(=CC=C/C3=N\OO)C2=O)C[C@H]2C[C@@H]1C2(C)C` NS
